tested on: HIV-1 strain NL4.3; assay: multi-cycle HIV-1 replication assay in CEM-GXR GFP-reporter T cells; assay type: cell-based; conditions: Human immunodeficiency virus 1, CEM-GXR, 72 h, read-out: EC50, in vitro HIV-1 replication
observed property: EC50 (nM)

- compound: "O=C1Nc2ccc(Cl)cc2[C@@](C#CC2CC2)(C(F)(F)F)O1 [Efavirenz, reference compound]"
  observed property: "EC50"
  value units: "nM"
  experimental value: 2.5

---

Test system: HIV-1 strain NL4.3
Assay: multi-cycle HIV-1 replication assay in CEM-GXR GFP-reporter T cells
Type: cell-based
Conditions: Human immunodeficiency virus 1; CEM-GXR T cells, HIV-1 NL4.3, MOI 0.03, GFP by flow cytometry after 72 hours; mean ± s.d. of three independent experiments; read-out: EC50, in vitro HIV-1 replication
Procedure: The ability of compounds 1–7 to inhibit HIV-1 replication was evaluated in vitro using an established multi-cycle replication assay. Briefly, the CEM-GXR T cell line, which contains an HIV-1 promoter-driven green fluorescent protein (GFP) reporter, was infected with the full-length, infectious HIV-1 strain NL4.3 at a multiplicity of infection of 0.03 [18]. […] GFP expression, a marker of viral replication, was then measured by flow cytometry after 72 hours. […]
pEC50: −log10 of the molar value.

- compound: "CCCc1cc(=O)c2c(O)c3c(OC)cc(O)cc3cc2o1 [Compound 5]"
  bound sign: "="
  pEC50: 4.81
- compound: "CCCc1cc(=O)c2c(O)cc3cc(O)cc(OC)c3c2o1 [Compound 2, comaparvin]"
  bound sign: "="
  pEC50: 5.12
- compound: "CCCc1cc(=O)c2c(cc(C(C)=O)c3c(OC)cc(=O)oc32)o1 [Compound 1]"
  bound sign: "<"
  pEC50: 4.00
- compound: "CCCc1cc(=O)c2c(OC)c(OC)c3cc(O)cc(OC)c3c2o1 [Compound 4, 6-methoxycomaparvin-5-methyl ether]"
  bound sign: "="
  pEC50: 4.84
- compound: "COc1cc(O)cc2cc(O)c3c(=O)cc(C)oc3c12 [Compound 3, TMC-256C1]"
  bound sign: "="
  pEC50: 4.59
- compound: "COc1cc(O)cc2cc3oc(C)cc(=O)c3c(O)c12 [Compound 7, TMC-256A1]"
  bound sign: "<"
  pEC50: 4.00
- compound: "CCCc1cc(=O)c2c(O)c3c(OC)cc(O)cc3c(OC)c2o1 [Compound 6]"
  bound sign: "="
  pEC50: 4.69
